Sourced from ChEMBL document CHEMBL1961873

# TARGET_ENTITY: Dual specificity mitogen-activated protein kinase kinase 1 (Homo sapiens);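 note: values reported are mean inhibition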
# CONDITION_SET: at 1 µM
Could you label it 1 (yes) if measured inhibition is 4% or higher, and 0 (no) otherwise?

{"columns": ["SAMPLE_SMILES", "GROUP_LABEL"],
 "data": [
  ["CC(C)=Cc1cccc2c1/C(=N/Nc1ccc(S(N)(=O)=O)cc1)C(=O)N2", "0 (no)"],
  ["CN(C)c1cc2c(Nc3ccc4nc(Cc5ccccc5)[nH]c4c3)ncnc2cn1", "1 (yes)"],
  ["Cc1cc(O)cc(C)c1/C=C/c1cncc(-c2nn[nH]n2)c1", "1 (yes)"],
  ["CS(=O)(=O)CCNCc1ccc(-c2ccc3ncnc(Nc4ccc(OCc5ccccc5)c(Cl)c4)c3c2)o1", "0 (no)"],
  ["COc1ccc(-c2coc3ncnc(N)c23)cc1", "1 (yes)"],
  ["NC(=O)c1cccc(Nc2nccc(Nc3cccc4[nH]ncc34)n2)c1", "0 (no)"],
  ["CS(=O)(=O)CCNCc1ccc(-c2ccc3ncnc(Nc4ccc(OCc5cccc(F)c5)c(C(F)(F)F)c4)c3c2)o1", "1 (yes)"],
  ["COc1cc2ncn(-c3cc(OCc4ccccc4C(F)(F)F)c(C(N)=O)s3)c2cc1OC", "0 (no)"],
  ["NS(=O)(=O)c1ccc(N/N=C2\\C(=O)Nc3ccc(C(=O)NCCc4c[nH]cn4)cc32)cc1", "1 (yes)"]
]}

----------
# Test system: Epidermal growth factor receptor (Homo sapiens), P00533 [L858R,T790M]
# Sequence (P00533 whole entry T790M/L858R, looked up): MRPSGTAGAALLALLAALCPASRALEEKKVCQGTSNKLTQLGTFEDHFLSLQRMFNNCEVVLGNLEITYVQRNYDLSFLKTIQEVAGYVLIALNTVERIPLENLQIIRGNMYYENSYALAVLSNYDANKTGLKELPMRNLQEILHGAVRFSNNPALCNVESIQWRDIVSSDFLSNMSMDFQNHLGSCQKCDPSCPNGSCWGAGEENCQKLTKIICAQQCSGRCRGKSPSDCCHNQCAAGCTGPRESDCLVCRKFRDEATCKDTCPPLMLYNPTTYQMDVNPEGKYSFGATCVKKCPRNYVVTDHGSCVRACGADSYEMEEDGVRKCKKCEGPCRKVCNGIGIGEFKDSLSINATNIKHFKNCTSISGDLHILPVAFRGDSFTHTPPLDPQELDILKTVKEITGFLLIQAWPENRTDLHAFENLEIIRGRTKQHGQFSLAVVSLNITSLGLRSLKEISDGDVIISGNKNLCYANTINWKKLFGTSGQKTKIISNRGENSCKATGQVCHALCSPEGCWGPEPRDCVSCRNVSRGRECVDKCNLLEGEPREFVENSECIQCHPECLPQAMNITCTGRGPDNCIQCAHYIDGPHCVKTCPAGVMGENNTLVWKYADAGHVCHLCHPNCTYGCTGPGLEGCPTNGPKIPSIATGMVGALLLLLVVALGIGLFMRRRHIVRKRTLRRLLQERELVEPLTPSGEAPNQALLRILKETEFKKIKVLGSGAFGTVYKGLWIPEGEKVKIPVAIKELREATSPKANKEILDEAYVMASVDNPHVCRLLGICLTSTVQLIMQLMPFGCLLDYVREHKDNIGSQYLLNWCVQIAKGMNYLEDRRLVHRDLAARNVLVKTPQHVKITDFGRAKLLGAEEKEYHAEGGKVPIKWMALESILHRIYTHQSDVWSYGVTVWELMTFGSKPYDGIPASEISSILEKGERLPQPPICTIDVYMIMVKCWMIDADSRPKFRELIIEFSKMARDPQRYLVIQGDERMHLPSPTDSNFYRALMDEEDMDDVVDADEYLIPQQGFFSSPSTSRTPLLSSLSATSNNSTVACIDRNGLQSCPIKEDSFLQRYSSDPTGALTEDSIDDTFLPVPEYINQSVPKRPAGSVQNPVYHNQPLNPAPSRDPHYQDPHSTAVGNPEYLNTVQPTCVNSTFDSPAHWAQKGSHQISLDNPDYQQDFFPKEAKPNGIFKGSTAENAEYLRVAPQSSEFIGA
# CONDITION_SET: at 1 µM

{"columns": ["SAMPLE_SMILES", "inhibition [%]"],
 "data": [
  ["CCn1c(-c2nonc2N)nc2ccncc21", -0.45],
  ["CCc1cccc(NC(=O)Nc2ccc(Oc3ccc4nc(NC(=O)OC)[nH]c4c3)cc2)c1", 4.31],
  ["Nc1ncnc2occ(-c3ccc(NC(=O)Nc4cccc(C(F)(F)F)c4)cc3)c12", 5.43],
  ["O=C1NC(=O)C(c2cccc(Cl)c2)=C1Nc1ccc(O)c(Cl)c1", 0.61],
  ["O=C1NC(=O)C(c2ccccc2Cl)=C1Nc1cccc(O)c1", 1.35],
  ["Cc1cccc(-c2n[nH]cc2-c2ccc3ncccc3n2)n1", -0.13]
]}

----------
# TARGET_ENTITY: Mitogen-activated protein kinase 9 (Homo sapiens);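 note: reported figure is the mean inhibition of JNK2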
# CONDITION_SET: at 1 µM
ATTRIBUTE_MEASURED: inhibition (%)

{"columns": ["SAMPLE_SMILES", "RECORDED_VALUE"],
 "data": [
  ["Cc1ccc(NC(=O)c2ccnc(N3CCCC3)c2)cc1-c1ccc(C(=O)NCC2CC2)cc1", 6.82],
  ["CCn1c(-c2nonc2N)nc2cncc(C(=O)N3CCNCC3)c21", 8.83],
  ["CS(=O)(=O)CCN(CC#N)Cc1ccc(-c2ccc3ncnc(Nc4ccc(OCc5cccc(F)c5)c(Cl)c4)c3c2)o1", 2.18],
  ["O=C1Nc2ccc(C(=O)c3ccco3)cc2C1=Cc1cc(Cl)c(O)c(Cl)c1", 6.22],
  ["Cc1nn(C)c2cc(N(C)c3ccnc(Nc4cccc(S(N)(=O)=O)c4)n3)ccc12", 10.2]
]}

----------
This listing pairs molecules with measured inhibition.
# TARGET_ENTITY: Tyrosine-protein kinase Blk (Homo sapiens) (UniProt P51451);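 note: mean percent inhibition of BLK kinase activity, from GSK PKIS kinase inhibitor set profiling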
# Sequence (P51451 2-505 limits assumed): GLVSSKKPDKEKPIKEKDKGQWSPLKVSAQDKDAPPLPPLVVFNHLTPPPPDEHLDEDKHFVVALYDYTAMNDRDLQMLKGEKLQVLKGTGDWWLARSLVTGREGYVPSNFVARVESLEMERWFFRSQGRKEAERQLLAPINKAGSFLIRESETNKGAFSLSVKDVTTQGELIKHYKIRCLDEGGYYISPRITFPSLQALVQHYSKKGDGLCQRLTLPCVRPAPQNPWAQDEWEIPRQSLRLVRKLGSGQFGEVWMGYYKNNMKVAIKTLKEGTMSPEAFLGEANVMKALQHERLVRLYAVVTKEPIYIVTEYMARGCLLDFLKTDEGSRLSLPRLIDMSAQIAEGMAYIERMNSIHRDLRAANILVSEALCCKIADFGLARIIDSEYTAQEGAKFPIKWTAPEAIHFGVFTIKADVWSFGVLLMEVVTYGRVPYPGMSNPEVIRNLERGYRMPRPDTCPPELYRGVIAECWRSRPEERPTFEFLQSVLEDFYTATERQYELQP
# CONDITION_SET: at 1 µM

{"columns": ["SAMPLE_SMILES", "UNITS_SYMBOL", "inhibition"],
 "data": [
  ["NC(=O)c1ccc(-c2nc(-c3ccccn3)c(-c3ccc4c(c3)OCO4)[nH]2)cc1", "%", 3.67],
  ["COC(=O)Nc1nc2cc(Oc3cccc(NC(=O)Nc4cc(C(F)(F)F)ccc4F)c3)ccc2[nH]1", "%", 1.35],
  ["Fc1cccc(COc2ccc(Nc3ncnc4sc(-c5cccs5)cc34)cc2Cl)c1", "%", 3.35],
  ["CCCN1CCC(Oc2cc(Nc3nc(Nc4cccc(F)c4C(N)=O)c4cc[nH]c4n3)c(OC)cc2Cl)CC1", "%", 4.43],
  ["CC(C)=Cc1cccc2c1/C(=N/Nc1ccc(S(N)(=O)=O)cc1)C(=O)N2", "%", 31.1],
  ["NS(=O)(=O)c1cccc(-c2ccc3c(NC(=O)C4CC4)n[nH]c3c2)c1", "%", 0.74],
  ["O=C1NC(=O)C(N2CCc3ccccc32)=C1c1ccc(Cl)cc1", "%", 4.59],
  ["COc1cc2ncn(-c3cc(O[C@H](C)c4ccccc4Cl)c(C(N)=O)s3)c2cc1OC", "%", 23.4],
  ["COc1cc2ncn(-c3cc(O[C@@H](C)c4ccccc4Cl)c(C(N)=O)s3)c2cc1OC", "%", 51.2]
]}
